tested-system: Aldo-keto reductase family 1 member C3 (Homo sapiens)
Sequence (P42330 whole entry): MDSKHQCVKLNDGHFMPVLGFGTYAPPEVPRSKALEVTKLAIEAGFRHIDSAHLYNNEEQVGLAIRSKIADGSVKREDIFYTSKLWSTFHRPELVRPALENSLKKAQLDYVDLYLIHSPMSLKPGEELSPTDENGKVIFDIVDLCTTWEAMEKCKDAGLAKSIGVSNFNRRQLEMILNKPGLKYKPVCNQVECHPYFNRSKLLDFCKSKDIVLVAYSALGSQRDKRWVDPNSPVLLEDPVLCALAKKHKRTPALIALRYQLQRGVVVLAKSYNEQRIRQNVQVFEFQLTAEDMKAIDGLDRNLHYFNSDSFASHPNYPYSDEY
experiment: Inhibition of AKR1C3 (unknown origin) expressed in human HCT116 cells assessed as formation of PR-104H from PR-104A preincubated for 2 hrs
Assay type: cell-based, HCT-116
outcome-measure: IC50 (nM)
Reply numerically in nM, unit not repeated.

O=C(N1CCOCC1)N1CCN(c2ccc(Cl)cc2)CC1 ... 18
Cc1cc(Cl)ccc1N1CCN(C(=O)N2CCOCC2)CC1 ... 13
O=C(N1CCOCC1)N1CCN(c2ccc(Cl)cc2Cl)CC1 ... 3
O=C(N1CCOCC1)N1CCN(c2ccc(Br)cc2)CC1 ... 12
O=C(CO)N1CCN(C(=O)N2CCN(c3ccc(Cl)cc3)CC2)CC1 ... 59

compound `O=C(N1CCOCC1)N1CCN(c2ccc(Cl)cc2CO)CC1` , IC50 observed: 13

compound `O=C(N1CCN(c2ccc(Cl)cc2)CC1)N1CCc2ccccc2C1` , IC50 observed: 390
